- assay_text: Plasma concentration in male Beagle dog at 400 mg/kg administered intramuscularly after 1 month
- Assay type: ADME, organism-based, Canis lupus familiaris
- Set-up: dose 400 mg/kg, route intramuscular
- measurement_parameters: im

compound	concentration at 730.5 h [ng/mL]
Cc1cc(/C=C/C#N)cc(C)c1Nc1ccnc(Nc2ccc(C#N)cc2)n1 [RILPIVIRINE]	158

###

- assay_text: Drug level in Beagle dog lymph node mandibular at 5 mg/kg administered intramuscularly after 3 months
- Format: ADME, organism-based, Canis lupus familiaris
- Design: dose 5 mg/kg, route intramuscular
- measurement_parameters: im, read-out: Drug uptake
observation_type: concentration at 2191.5 h (ng/g)

compound	observation_type	assay_value
Cc1cc(/C=C/C#N)cc(C)c1Nc1ccnc(Nc2ccc(C#N)cc2)n1 [RILPIVIRINE]	concentration at 2191.5 h	10

###

- assay_text: Drug level in female Beagle dog thymus at 400 mg/kg administered intramuscularly after 1 month
- Format: ADME, organism-based, Canis lupus familiaris
- Set-up: dose 400 mg/kg, route intramuscular
- measurement_parameters: im, read-out: Drug uptake

compound_string	concentration at 730.5 h [ng/g]
Cc1cc(/C=C/C#N)cc(C)c1Nc1ccnc(Nc2ccc(C#N)cc2)n1	676

###

- assay_text: Drug level in female Beagle dog spleen at 400 mg/kg, sc after 1 month
- Format: ADME, organism-based, Canis lupus familiaris
- Design: dose 400 mg/kg, route subcutaneous
- measurement_parameters: read-out: Drug uptake
observation_type: concentration at 730.5 h (ng/g)

compound_string	observation_type	result_unit	assay_value
Cc1cc(/C=C/C#N)cc(C)c1Nc1ccnc(Nc2ccc(C#N)cc2)n1	concentration at 730.5 h	ng/g	285

The origin of these recorded values is ChEMBL document CHEMBL1687756.
